System: Escherichia coli TOP10;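 further: peptides expressed intracellularly from a pBAD plasmid library in pooled LB shake-flask culture, induced with 0.3% L-arabinose, DNA abundance read by NGS, three biological replicates, DESeq2 with apeglm shrinkage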
Test: shrunken log2 fold change of peptide-encoding DNA abundance (4.5 h post-induction vs induction); higher = less antimicrobial activity (less host growth inhibition)
Settings: time post-induction: 4.5 h; library: site-saturation at positions 5, 18, 19, 20
METRIC: shrunken log2 fold change
Write no unit; give the number alone.

• RRIRMRPPRLPRPRPRPASIPRP = -0.015
• RRIRLRPPRLPRPRPRPPNKPRP = -0.123
• RRIRVRPPRLPRPRPRPGCLPRP = 0.236
• RRIRWRPPRLPRPRPRPTDWPRP = 0.581
• RRIRWRPPRLPRPRPRPYCPPRP = -0.441
• RRIRHRPPRLPRPRPRPSCCPRP = -0.343

We now examine a further sequence.
Input: Quick one: shrunken log2 fold change of RRIRYRPPRLPRPRPRPWRHPRP ?
Output: -0.116
